Each recorded value in this set is attributed to patent US9221808B2.

experimental_target: ROCK2 (Homo sapiens (Human), UniProt O75116)
Sequence (O75116 whole entry, species assumed): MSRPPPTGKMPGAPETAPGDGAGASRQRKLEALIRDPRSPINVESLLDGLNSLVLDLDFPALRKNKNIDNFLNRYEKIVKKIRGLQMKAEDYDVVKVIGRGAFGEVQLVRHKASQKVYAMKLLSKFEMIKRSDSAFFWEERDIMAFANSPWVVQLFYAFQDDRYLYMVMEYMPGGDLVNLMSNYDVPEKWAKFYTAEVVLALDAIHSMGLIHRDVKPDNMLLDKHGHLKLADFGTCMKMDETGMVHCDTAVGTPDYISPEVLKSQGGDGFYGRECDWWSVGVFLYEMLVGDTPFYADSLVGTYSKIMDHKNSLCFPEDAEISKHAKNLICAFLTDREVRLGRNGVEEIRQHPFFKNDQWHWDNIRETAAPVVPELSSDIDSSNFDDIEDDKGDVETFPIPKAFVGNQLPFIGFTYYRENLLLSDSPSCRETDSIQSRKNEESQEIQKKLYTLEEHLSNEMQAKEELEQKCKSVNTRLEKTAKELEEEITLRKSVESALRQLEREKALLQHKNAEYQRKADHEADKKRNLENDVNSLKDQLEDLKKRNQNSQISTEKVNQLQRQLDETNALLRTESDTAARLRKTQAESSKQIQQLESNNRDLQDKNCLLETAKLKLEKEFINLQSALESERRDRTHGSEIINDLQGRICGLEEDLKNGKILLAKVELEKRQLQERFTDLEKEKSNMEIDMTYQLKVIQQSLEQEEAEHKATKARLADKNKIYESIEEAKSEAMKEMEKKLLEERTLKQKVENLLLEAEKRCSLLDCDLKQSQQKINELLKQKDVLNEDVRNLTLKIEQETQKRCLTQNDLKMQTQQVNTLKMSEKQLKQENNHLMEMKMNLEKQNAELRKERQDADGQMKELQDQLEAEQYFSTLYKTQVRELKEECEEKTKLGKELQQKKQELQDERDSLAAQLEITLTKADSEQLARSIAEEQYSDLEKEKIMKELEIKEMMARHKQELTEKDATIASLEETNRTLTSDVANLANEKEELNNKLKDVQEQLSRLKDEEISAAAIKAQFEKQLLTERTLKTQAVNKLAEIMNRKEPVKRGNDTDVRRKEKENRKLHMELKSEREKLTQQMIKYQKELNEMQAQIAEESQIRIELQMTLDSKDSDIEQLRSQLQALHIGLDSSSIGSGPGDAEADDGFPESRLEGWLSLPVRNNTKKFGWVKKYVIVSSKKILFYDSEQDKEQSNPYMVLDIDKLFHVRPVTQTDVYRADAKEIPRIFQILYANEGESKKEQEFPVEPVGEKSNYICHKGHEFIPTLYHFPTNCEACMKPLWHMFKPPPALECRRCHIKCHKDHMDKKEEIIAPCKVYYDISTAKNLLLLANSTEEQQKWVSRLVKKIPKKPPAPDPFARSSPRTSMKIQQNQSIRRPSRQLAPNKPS
assay_overview: FRET-based Z'-Lyte kinase assay, ROCK2;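 further: kinase phosphorylates a coumarin/fluorescein FRET peptide, then a protease cleaves unphosphorylated peptide, read as donor/acceptor emission ratio after 400 nm excitation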
Format: biochemical
condition_notes: read-out: IC50 ± SD (μM) ROCK2
experimental_readout: IC50 (µM)

Field: IC50 (ROCK2 (Homo sapiens (Human), UniProt O75116)). Entry: O=C(NCc1ccco1)Nc1nc(-c2ccncc2)cs1 [Compound 1ak1]
0.38

1: O=C(NCc1cccc(Cl)c1)Nc1nc(-c2ccncc2)cs1 [Compound 1an]
2: Nc1ccc(CNC(=O)Nc2nc(-c3ccncc3)cs2)cc1 [Compound 1bl]
3: Cc1ccc(CNC(=O)Nc2nc(-c3ccncc3)cs2)cc1 [Compound 1bd]
rank_up(items): orders items by reported IC50 in ascending numerical order. Write the labels in rank order as requested.
1, 3, 2

1: CC(C)(NC(=O)Nc1nc(-c2ccncc2)cs1)c1ccccc1 [Compound 1cl]
2: CCOc1cccc(CNC(=O)Nc2nc(-c3ccncc3)cs2)c1 [Compound 1bw]
Would you kindly point out which of 1 and 2 has the smaller IC50 figure? Response format: the label of the selected entry.
1

----------
experimental_target: ROCK1 (Homo sapiens (Human), UniProt Q13464)
Sequence (Q13464 whole entry, species assumed): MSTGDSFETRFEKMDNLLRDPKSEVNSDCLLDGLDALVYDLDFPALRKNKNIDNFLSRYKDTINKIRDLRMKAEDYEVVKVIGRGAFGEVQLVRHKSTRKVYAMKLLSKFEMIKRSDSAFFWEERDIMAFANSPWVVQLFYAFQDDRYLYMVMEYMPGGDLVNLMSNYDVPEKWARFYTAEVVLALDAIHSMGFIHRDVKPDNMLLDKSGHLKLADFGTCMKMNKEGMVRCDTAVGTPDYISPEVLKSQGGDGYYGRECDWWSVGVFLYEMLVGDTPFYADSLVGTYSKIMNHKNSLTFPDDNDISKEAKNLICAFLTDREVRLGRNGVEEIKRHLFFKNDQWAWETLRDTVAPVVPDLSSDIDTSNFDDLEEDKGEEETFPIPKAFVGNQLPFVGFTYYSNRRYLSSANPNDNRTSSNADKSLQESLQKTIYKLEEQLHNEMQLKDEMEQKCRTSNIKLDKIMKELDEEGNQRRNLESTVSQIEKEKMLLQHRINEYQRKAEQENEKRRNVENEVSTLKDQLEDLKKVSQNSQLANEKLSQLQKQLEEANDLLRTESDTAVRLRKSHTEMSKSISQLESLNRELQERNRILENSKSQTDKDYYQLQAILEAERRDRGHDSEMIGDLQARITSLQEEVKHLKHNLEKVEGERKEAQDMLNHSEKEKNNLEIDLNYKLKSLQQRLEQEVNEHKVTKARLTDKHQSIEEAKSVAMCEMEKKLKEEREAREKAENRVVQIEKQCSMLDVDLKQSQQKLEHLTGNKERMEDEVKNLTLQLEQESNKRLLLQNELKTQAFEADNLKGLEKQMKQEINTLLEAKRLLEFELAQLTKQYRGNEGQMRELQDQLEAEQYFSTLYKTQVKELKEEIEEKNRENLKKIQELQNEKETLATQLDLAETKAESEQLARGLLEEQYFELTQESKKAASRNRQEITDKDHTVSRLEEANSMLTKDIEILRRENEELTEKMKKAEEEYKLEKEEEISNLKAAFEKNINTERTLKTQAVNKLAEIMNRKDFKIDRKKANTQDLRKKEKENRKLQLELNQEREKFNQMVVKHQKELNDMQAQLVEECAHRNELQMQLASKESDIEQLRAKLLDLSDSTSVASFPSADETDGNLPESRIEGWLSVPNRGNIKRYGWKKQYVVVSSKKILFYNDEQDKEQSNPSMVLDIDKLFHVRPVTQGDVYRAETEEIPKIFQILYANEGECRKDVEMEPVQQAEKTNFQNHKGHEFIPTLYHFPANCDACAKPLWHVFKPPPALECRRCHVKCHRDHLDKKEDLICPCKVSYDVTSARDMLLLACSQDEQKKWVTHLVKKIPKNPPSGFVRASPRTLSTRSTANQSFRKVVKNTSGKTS
assay_overview: FRET-based Z'-Lyte kinase assay, ROCK1
Format: biochemical
condition_notes: read-out: ROCK1 % inhibition @ 50 μM; 50 μM compound
experimental_readout: inhibition at 50 µM (%)

// below: answered compounds
Which inhibition at 50 µM value belongs to O=C(Nc1nc(-c2ccncc2)cs1)NC1Cc2ccccc2C1 [Compound 1cr] ?
40.9

Tell me the measured inhibition at 50 µM of O=C(NCc1cc(Cl)cc(Cl)c1)Nc1nc(-c2ccncc2)cs1 [Compound 1cg] , please.
-6.26

Record request: inhibition at 50 µM value, item O=C(NC(=O)c1ccccc1)Nc1nc(-c2ccncc2)cs1 [Compound 8]
16.3

I: O=C(Nc1nc(-c2ccncc2)cs1)N1CCN(c2cccnc2)CC1 [Compound 12e]
II: O=C(Nc1nc(-c2ccncc2)cs1)N1CCN(c2ccncn2)CC1 [Compound 12d]
Please indicate which has the smaller reported inhibition at 50 µM: I , or II . Choose, then provide that item's label.
I

----------
experimental_target: ROCK1 (Homo sapiens (Human), UniProt Q13464)
assay_overview: FRET-based Z'-Lyte kinase assay, ROCK1
Type: biochemical
condition_notes: hydrochloride; read-out: IC50 ± SD (μM) ROCK1
Structures can show the parent of a compound that is named as a salt.
experimental_readout: IC50 (µM)
Give your result in µM as a bare value.

Please give the measured IC50 for this molecule: COc1cccc(CNC(=O)Nc2nc(-c3ccncc3)cs2)c1 [Compound 1af-HCl]
0.023

----------
experimental_target: ROCK1 (Homo sapiens (Human))
assay_overview: FRET-based Z'-Lyte kinase assay, ROCK1
Assay type: biochemical
condition_notes: read-out: IC50 ± SD (μM) ROCK1
Where a name gives a salt, the structure may show the parent alone.
experimental_readout: IC50 (µM)

Use the examples below as a reference point.
Form entry - test system: ROCK1 (Homo sapiens (Human)); read-out: IC50; molecule: O=C(Nc1nc(-c2ccncc2)cs1)N[C@@H]1CCCc2ccccc21 [Compound 1cv]
6.99

Report IC50 for CNc1cccc(CNC(=O)Nc2nc(-c3ccncc3)cs2)c1 [Compound 1bq] tested on ROCK1 (Homo sapiens (Human)).
0.47

A: COc1ccccc1CNC(=O)Nc1nc(-c2ccncc2)cs1 [Compound 1ad]
B: COc1cccc(CN(C)C(=O)Nc2nc(-c3ccncc3)cs2)c1 [Compound 1cm]
Looking at A and B , which one comes out lower in IC50 terms? Answer with the label corresponding to your selection.
B

A: O=C(NCc1ccc(Cl)cc1Cl)Nc1nc(-c2ccncc2)cs1 [Compound 1ag]
B: O=C(NCc1ccccc1F)Nc1nc(-c2ccncc2)cs1 [Compound 1ac]
C: COc1cccc([C@H](C)NC(=O)Nc2nc(-c3ccncc3)cs2)c1 [Compound 1bg]
D: COC[C@H](NC(=O)Nc1nc(-c2ccncc2)cs1)c1ccccc1 [Compound 1bk]
E: O=C(NCc1cccc(OC(F)F)c1)Nc1nc(-c2ccncc2)cs1 [Compound 1bs]
Please list these in order of increasing IC50. Thank you! Form field (ranking): labels in requested order.
B, E, A, C, D

1: CS(=O)(=O)Nc1cccc(CNC(=O)Nc2nc(-c3ccncc3)cs2)c1 [Compound 1ch, hydrochloride]
2: COc1cccc(CNC(=O)N(C)c2nc(-c3ccncc3)cs2)c1 [Compound 1al]
// pick larger IC50 from pair: 1 vs 2 Give the chosen item's label as your response.
1
(1: 0.56 µM, 2: 0.06 µM)

I: O=C(NCc1cccc(O)c1)Nc1nc(-c2ccncc2)cs1 [Compound 1bo-HCl]
II: O=C(NCc1ccncc1)Nc1nc(-c2ccncc2)cs1 [Compound 1aq]
Identify the item whose IC50 is the smaller number: I or II Give the label under which the chosen entry appears.
I
(I: 0.009 µM, II: 2.07 µM)

----------
experimental_target: UniProt:Q13464
assay_overview: FRET-based Z'-Lyte kinase assay, ROCK1
Format: biochemical
condition_notes: comparator 1aa
experimental_readout: fold decrease in ROCK1 activity/potency compared to parent compound 1aa (fold)

Please look up its fold decrease in ROCK1 activity/potency compared to parent compound 1aa: Cc1cccc(CNC(=O)Nc2nc(-c3ccncc3)cs2)c1 [Compound 1ba]
3

Given the entry CC[C@@H](NC(=O)Nc1nc(-c2ccncc2)cs1)c1ccccc1 [Compound 1be] , report its measured fold decrease in ROCK1 activity/potency compared to parent compound 1aa.
3.5

P: O=C(NCCc1ccccc1)Nc1nc(-c2ccncc2)cs1 [Compound 1aw]
Q: O=C(Nc1nc(-c2ccncc2)cs1)NC(c1ccccc1)c1ccccc1 [Compound 1bi]
Looking only at measured fold decrease in ROCK1 activity/potency compared to parent compound 1aa, which entry is lower, P or Q ? Indicate which entry you chose by stating its label.
P

----------
experimental_target: ROCK2 (Homo sapiens (Human))
assay_overview: FRET-based Z'-Lyte kinase assay, ROCK2
Assay type: biochemical
condition_notes: read-out: IC50 ± SD (μM) ROCK2
experimental_readout: IC50 (µM)

Observe how each entry below is paired with its result.
Checklist item: IC50 tested on ROCK2 (Homo sapiens (Human)), entry O=C(Nc1nc(-c2ccncc2)cs1)N[C@@H]1CCCc2ccccc21 [Compound 1cv] , value?
3.82

Given the entry O=C(Nc1nc(-c2ccncc2)cs1)NC(c1ccccc1)c1ccccc1 [Compound 1bi] , what IC50 was observed with ROCK2 (Homo sapiens (Human))?
0.53

Enter reported IC50 observed with ROCK2 (Homo sapiens (Human)) for O=C(Nc1nc(-c2ccncc2)cs1)N1CCN(c2ccncc2)CC1 [Compound 12a]
8.35

Entry C[C@@H](NC(=O)Nc1nc(-c2ccncc2)cs1)c1cccc(Cl)c1 [Compound 1cb] , system ROCK2 (Homo sapiens (Human)): what IC50 was measured?
0.07

Field: IC50 (ROCK2 (Homo sapiens (Human))). Entry: C[C@H](c1ccccc1)N(C)C(=O)Nc1nc(-c2ccncc2)cs1 [Compound 1cn]
0.047

A: O=C(NCc1cccc2ccccc12)Nc1nc(-c2ccncc2)cs1 [Compound 1av]
B: O=C(NCc1ccncc1)Nc1nc(-c2ccncc2)cs1 [Compound 1aq]
Which shows the larger IC50 value: A or B ? // return label of chosen record
B
(B: 1.47 µM, A: 0.58 µM)

----------
experimental_target: ROCK2 (Homo sapiens (Human))
assay_overview: FRET-based Z'-Lyte kinase assay, ROCK2
Format: biochemical
condition_notes: read-out: IC50 ± SD (μM) ROCK2
Where a name gives a salt, the structure may show the parent alone.
experimental_readout: IC50 (µM)

Known results for compounds:
What does the data say about its IC50? Entry: `C[C@H](NC(=O)Nc1nc(-c2ccncc2)cs1)c1cccc(F)c1`
11

Any idea what IC50 was measured for `Nc1cccc(CNC(=O)Nc2nc(-c3ccncc3)cs2)c1` ?
0.02

Name the reported IC50 value associated with the compound `CN(Cc1ccccc1)C(=O)Nc1nc(-c2ccncc2)cs1`
0.07

1: O=C(NCc1ccccc1F)Nc1nc(-c2ccncc2)cs1
2: C[C@@H](NC(=O)Nc1nc(-c2ccncc2)cs1)c1cccc(F)c1
3: CCCOc1cccc(CNC(=O)Nc2nc(-c3ccncc3)cs2)c1
4: NC(=O)Nc1cccc(CNC(=O)Nc2nc(-c3ccncc3)cs2)c1 [Compound 1cj, hydrochloride]
5: COc1cccc([C@@H](C)NC(=O)Nc2nc(-c3ccncc3)cs2)c1
Give the ascending ranking of the items by reported IC50. Give the labels in the order specified.
5, 2, 1, 4, 3
(5: 0.009 µM, 2: 0.03 µM, 1: 0.12 µM, 4: 0.18 µM, 3: 0.68 µM)

----------
experimental_target: ROCK1 (Homo sapiens (Human), UniProt Q13464)
assay_overview: FRET-based Z'-Lyte kinase assay, ROCK1
Format: biochemical
condition_notes: read-out: IC50 ± SD (μM) ROCK1
experimental_readout: IC50 (µM)

Sample `COc1cccc(CNC(=O)Nc2nc(-c3ccncc3)cs2)c1OC` — what was its IC50?
35.4

For the molecule `O=C(NCc1ccccc1O)Nc1nc(-c2ccncc2)cs1` , what IC50 is on record?
0.62

Fill blank: measured IC50 of the molecule `O=C(NCc1ccc(F)cc1)Nc1nc(-c2ccncc2)cs1` is ____.
0.57

Which IC50 value is on record for COc1ccc(CNC(=O)Nc2nc(-c3ccncc3)cs2)cc1 [Compound 1am-Mes, methanesulfonate] ?
36.2

Field request: IC50 | item: `C[C@@H](NC(=O)Nc1nc(-c2ccncc2)cs1)c1cccc(F)c1`
0.11

// query IC50 value for entry `O=C(NCc1cccc2ccccc12)Nc1nc(-c2ccncc2)cs1`
1.1

P: Cc1ccccc1CNC(=O)Nc1nc(-c2ccncc2)cs1
Q: O=C(NCc1ccccn1)Nc1nc(-c2ccncc2)cs1
Hi there! Just curious which has the higher IC50 between P and Q . Answer by stating the label of the chosen item.
Q

P: CC(NC(=O)Nc1nc(-c2ccncc2)cs1)c1cccc(F)c1 (stereo not shown)
Q: Nc1cccc(CNC(=O)Nc2nc(-c3ccncc3)cs2)c1
Of P versus Q , which is the one with smaller reported IC50? Mark your selection by writing its label.
Q

I: C[C@@H](c1ccccc1)N(C)C(=O)Nc1nc(-c2ccncc2)cs1
II: O=C(Nc1nc(-c2ccncc2)cs1)N1CCc2ccccc2C1
I'm curious, which of these has a smaller IC50 number: I or II ? Please identify the chosen entry by its label.
II

A: O=C(Nc1nc(-c2ccncc2)cs1)N[C@H]1CCc2ccccc21
B: O=C(NCCc1ccccc1)Nc1nc(-c2ccncc2)cs1
Consider A and B . Which of these has its IC50 at a higher number? Lab note: record the label of whichever item you select.
A

a: Cc1cccc(CNC(=O)Nc2nc(-c3ccncc3)cs2)c1
b: CC[C@H](NC(=O)Nc1nc(-c2ccncc2)cs1)c1ccccc1
c: O=C(Nc1nc(-c2ccncc2)cs1)N[C@@H]1CCc2ccccc21
Provide the items ranked by increasing IC50. Order the labels as requested and list them.
a, c, b
(a: 0.46 µM, c: 28.2 µM, b: 52.2 µM)

a: COCCOc1cccc(CNC(=O)Nc2nc(-c3ccncc3)cs2)c1
b: NC(=O)[C@H](NC(=O)Nc1nc(-c2ccncc2)cs1)c1ccccc1
Hi! Which is lower in terms of IC50, the first one a or the second one b ? State your choice using its label.
a
(a: 0.5 µM, b: 3.7 µM)
